Could you please report measured kinase still bound, per cent of control for the items listed next?
experimental.system: CHUK (human) (UniProt O15111)
Sequence (O15111 whole entry, looked up): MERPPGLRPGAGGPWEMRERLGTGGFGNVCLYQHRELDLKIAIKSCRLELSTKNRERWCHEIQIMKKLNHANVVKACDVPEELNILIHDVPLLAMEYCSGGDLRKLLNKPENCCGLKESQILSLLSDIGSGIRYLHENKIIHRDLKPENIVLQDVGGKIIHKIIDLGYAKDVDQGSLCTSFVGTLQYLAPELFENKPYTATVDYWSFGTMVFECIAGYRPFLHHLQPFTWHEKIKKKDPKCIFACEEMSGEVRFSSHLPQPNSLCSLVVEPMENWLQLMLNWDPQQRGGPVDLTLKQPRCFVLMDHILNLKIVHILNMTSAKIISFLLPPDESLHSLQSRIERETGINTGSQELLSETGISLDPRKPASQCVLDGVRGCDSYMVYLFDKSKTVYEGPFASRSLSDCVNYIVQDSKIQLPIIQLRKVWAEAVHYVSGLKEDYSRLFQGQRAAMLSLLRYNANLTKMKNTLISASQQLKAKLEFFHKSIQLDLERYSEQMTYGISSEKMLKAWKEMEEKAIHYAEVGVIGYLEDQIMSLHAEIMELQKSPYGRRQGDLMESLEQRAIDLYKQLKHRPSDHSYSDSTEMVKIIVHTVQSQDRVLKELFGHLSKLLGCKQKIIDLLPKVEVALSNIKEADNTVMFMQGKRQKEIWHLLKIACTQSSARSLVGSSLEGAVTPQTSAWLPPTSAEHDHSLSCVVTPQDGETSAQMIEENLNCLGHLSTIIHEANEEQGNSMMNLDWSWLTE
procedure.summary: KINOMEscan competition binding
test.context: compound 10.0 µM
Kindly answer with a numeric value in %, unit omitted.

Prompt: Recorded kinase still bound, per cent of control for O=C(Nc1cccc(Nc2ncc(Br)c(NCCc3cnc[nH]3)n2)c1)N1CCCC1 with CHUK (human) (UniProt O15111), please?
Completion: 4.1

Prompt: Give the reported kinase still bound, per cent of control for O=c1cc(N2CCOCC2)oc2c(-c3cccc4c3sc3ccccc34)cccc12 (system: CHUK (human) (UniProt O15111)).
Completion: 100

Prompt: Identify the measured kinase still bound, per cent of control of Cc1n[nH]c2ccc(-c3cncc(OC[C@@H](N)Cc4c[nH]c5ccccc45)c3)cc12 for CHUK (human) (UniProt O15111).
Completion: 1

Prompt: Give the reported kinase still bound, per cent of control for CCN1CCN(C(=O)Cc2ccc(Nc3ncc(F)c(Nc4ccc(C(=O)Nc5ccccc5Cl)cc4)n3)cc2)CC1 (system: CHUK (human) (UniProt O15111)).
Completion: 84

Prompt: Param readout= kinase still bound, per cent of control; system= CHUK (human) (UniProt O15111); entry= COc1cc(N2CCN(C)CC2)ccc1Nc1ncc2c(n1)N(C)c1ccccc1C(=O)N2C ; returns value.
Completion: 100

* * *

experimental.system: PRKCQ (human)
procedure.summary: KINOMEscan competition binding
test.context: compound 10.0 µM
Kindly state kinase still bound, per cent of control for each of the entries shown.

Prompt: Bench note: what kinase still bound, per cent of control did CCN(CC)CCCCNc1ncc2cc(-c3cc(OC)cc(OC)c3)c(NC(=O)NC(C)(C)C)nc2n1 show?
Completion: 100%

Prompt: What value of kinase still bound, per cent of control has been recorded for this entry: CNC(=O)c1cc(Oc2ccc(NC(=O)Nc3ccc(Cl)c(C(F)(F)F)c3)cc2)ccn1
Completion: 84%

Prompt: Give its kinase still bound, per cent of control value. Item: COc1ccc(N(C(=O)Oc2c(C)cccc2C)c2ccnc(Nc3ccc(N4CCN(C)CC4)cc3)n2)c(OC)c1
Completion: 21%

Prompt: Param item = CN(C)C/C=C/C(=O)Nc1ccc(C(=O)Nc2cccc(Nc3nccc(-c4cccnc4)n3)c2)cc1 ; retrieve measured kinase still bound, per cent of control.
Completion: 68%

Prompt: For the compound shown here, C[C@@H](Oc1cc(-c2cnn(C3CCNCC3)c2)cnc1N)c1c(Cl)ccc(F)c1Cl , give the reported kinase still bound, per cent of control.
Completion: 88%

Prompt: Please look up its kinase still bound, per cent of control: O=c1cc(N2CCOCC2)oc2c(-c3cccc4c3sc3ccccc34)cccc12
Completion: 100%

Prompt: Need kinase still bound, per cent of control, item CCN1CCN(C(=O)Cc2ccc(Nc3ncc(F)c(Nc4ccc(C(=O)Nc5ccccc5Cl)cc4)n3)cc2)CC1
Completion: 74%

Prompt: Sample O=C(Nc1cccc(Nc2ncc(Br)c(NCCc3cnc[nH]3)n2)c1)N1CCCC1 — what was its kinase still bound, per cent of control?
Completion: 3.6%

Prompt: Can you look up the measured kinase still bound, per cent of control of COc1cc(N2CCN(C)CC2)ccc1Nc1ncc2c(n1)N(C)c1ccccc1C(=O)N2C for me?
Completion: 100%

* * *

experimental.system: CSNK1A1L (human) (UniProt Q8N752)
Sequence (Q8N752 whole entry, looked up): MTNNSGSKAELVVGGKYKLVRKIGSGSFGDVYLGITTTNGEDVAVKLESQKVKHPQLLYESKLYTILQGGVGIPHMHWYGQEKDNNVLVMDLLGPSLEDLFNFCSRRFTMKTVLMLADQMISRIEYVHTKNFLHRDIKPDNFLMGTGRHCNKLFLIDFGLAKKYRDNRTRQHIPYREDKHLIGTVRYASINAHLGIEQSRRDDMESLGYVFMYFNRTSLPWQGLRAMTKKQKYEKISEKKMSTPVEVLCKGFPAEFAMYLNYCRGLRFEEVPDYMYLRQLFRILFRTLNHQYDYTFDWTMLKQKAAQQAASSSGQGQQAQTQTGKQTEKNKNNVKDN
procedure.summary: KINOMEscan competition binding
test.context: compound 10.0 µM
For each entry below, report its kinase still bound, per cent of control value.
Quick reminder: number only, in %, skip the unit.

Prompt: May I ask what kinase still bound, per cent of control has been recorded for O=C1NC(=O)/C(=C/c2ccc3nccc(-c4ccncc4)c3c2)S1 ?
Completion: 55

Prompt: For O=C(Nc1cccc(Nc2ncc(Br)c(NCCc3cnc[nH]3)n2)c1)N1CCCC1 , what is its reported kinase still bound, per cent of control?
Completion: 32

Prompt: Fill blank: measured kinase still bound, per cent of control of the compound COc1cc2ncnc(-n3nc(-c4ccccn4)nc3N)c2cc1OC is ____.
Completion: 32

Prompt: Give the measured kinase still bound, per cent of control of CS(=O)(=O)N1CCN(Cc2cc3nc(-c4cccc5[nH]ncc45)nc(N4CCOCC4)c3s2)CC1 .
Completion: 100

Prompt: I am curious: what kinase still bound, per cent of control value has been reported for CNC(=O)c1cc(Oc2ccc(NC(=O)Nc3ccc(Cl)c(C(F)(F)F)c3)cc2)ccn1 ?
Completion: 98

Prompt: So what's the measured kinase still bound, per cent of control for this one? C=CC(=O)Nc1cc(-n2c(=O)ccc3cnc4ccc(-c5cn[nH]c5)cc4c32)ccc1C
Completion: 90

Prompt: Param item = C=CC(=O)Nc1ccc(CN(C(=O)Nc2c(Cl)c(OC)cc(OC)c2Cl)c2cc(Nc3ccc(N4CCN(C)CC4)cc3)ncn2)cc1 ; retrieve measured kinase still bound, per cent of control.
Completion: 100

Prompt: Returns the measured kinase still bound, per cent of control for the input compound. Input: COc1ccc(N(C(=O)Oc2c(C)cccc2C)c2ccnc(Nc3ccc(N4CCN(C)CC4)cc3)n2)c(OC)c1
Completion: 100

Prompt: Recorded kinase still bound, per cent of control of COc1cc(C(=O)N2CCC(N3CCN(C)CC3)CC2)ccc1Nc1ncc2c(n1)N(C)c1ccccc1C(=O)N2C , please.
Completion: 100

Prompt: # lookup: kinase still bound, per cent of control of CCN1CCN(C(=O)Cc2ccc(Nc3ncc(F)c(Nc4ccc(C(=O)Nc5ccccc5Cl)cc4)n3)cc2)CC1
Completion: 100

Prompt: Give its kinase still bound, per cent of control value. Item: COc1cc(N2CCN(C)CC2)ccc1Nc1ncc2c(n1)N(C)c1ccccc1C(=O)N2C
Completion: 100

Prompt: Which kinase still bound, per cent of control reading was recorded for the compound C[C@@H](Oc1cc(-c2cnn(C3CCNCC3)c2)cnc1N)c1c(Cl)ccc(F)c1Cl ?
Completion: 100

Prompt: What does the data say about its kinase still bound, per cent of control? Entry: Cc1n[nH]c2ccc(-c3cncc(OC[C@@H](N)Cc4c[nH]c5ccccc45)c3)cc12
Completion: 11

Prompt: Which measured kinase still bound, per cent of control value corresponds to CNC(=O)c1ccc(Nc2cc(Nc3ccccc3S(=O)(=O)C(C)C)c3cc[nH]c3n2)nc1 ?
Completion: 26

Prompt: # input compound: N#CCNC(=O)c1ccc(-c2ccnc(Nc3ccc(N4CCOCC4)cc3)n2)cc1 ; wanted: its kinase still bound, per cent of control
Completion: 100

Prompt: For the compound CCN(CC)CCCCNc1ncc2cc(-c3cc(OC)cc(OC)c3)c(NC(=O)NC(C)(C)C)nc2n1 , what kinase still bound, per cent of control is on record?
Completion: 100

Prompt: Requested field: kinase still bound, per cent of control. Item: NC(=O)Nc1cc(-c2cccc(F)c2)sc1C(=O)N[C@@H]1CCCNC1
Completion: 2.4

Prompt: What does the record list as kinase still bound, per cent of control for CN(C)C/C=C/C(=O)Nc1ccc(C(=O)Nc2cccc(Nc3nccc(-c4cccnc4)n3)c2)cc1 ?
Completion: 100

* * *

experimental.system: TLK1 (human)
procedure.summary: KINOMEscan competition binding
test.context: compound 10.0 µM
Field: kinase still bound, per cent of control. Provide a value for each of the compounds that follow.
The response must be a number in % with no trailing unit.

Prompt: Item CCN1CCN(C(=O)Cc2ccc(Nc3ncc(F)c(Nc4ccc(C(=O)Nc5ccccc5Cl)cc4)n3)cc2)CC1 has what recorded kinase still bound, per cent of control?
Completion: 19

Prompt: Need kinase still bound, per cent of control, item CNC(=O)c1ccc(Nc2cc(Nc3ccccc3S(=O)(=O)C(C)C)c3cc[nH]c3n2)nc1
Completion: 100

Prompt: Bench note: what kinase still bound, per cent of control did COc1ccc(N(C(=O)Oc2c(C)cccc2C)c2ccnc(Nc3ccc(N4CCN(C)CC4)cc3)n2)c(OC)c1 show?
Completion: 45

Prompt: Requested read-out: kinase still bound, per cent of control. Entry: CNC(=O)c1cc(Oc2ccc(NC(=O)Nc3ccc(Cl)c(C(F)(F)F)c3)cc2)ccn1
Completion: 100

* * *

Test system: KIT (human), P10721 [V559D/V654A]
Sequence (P10721 whole entry V559D/V654A, looked up): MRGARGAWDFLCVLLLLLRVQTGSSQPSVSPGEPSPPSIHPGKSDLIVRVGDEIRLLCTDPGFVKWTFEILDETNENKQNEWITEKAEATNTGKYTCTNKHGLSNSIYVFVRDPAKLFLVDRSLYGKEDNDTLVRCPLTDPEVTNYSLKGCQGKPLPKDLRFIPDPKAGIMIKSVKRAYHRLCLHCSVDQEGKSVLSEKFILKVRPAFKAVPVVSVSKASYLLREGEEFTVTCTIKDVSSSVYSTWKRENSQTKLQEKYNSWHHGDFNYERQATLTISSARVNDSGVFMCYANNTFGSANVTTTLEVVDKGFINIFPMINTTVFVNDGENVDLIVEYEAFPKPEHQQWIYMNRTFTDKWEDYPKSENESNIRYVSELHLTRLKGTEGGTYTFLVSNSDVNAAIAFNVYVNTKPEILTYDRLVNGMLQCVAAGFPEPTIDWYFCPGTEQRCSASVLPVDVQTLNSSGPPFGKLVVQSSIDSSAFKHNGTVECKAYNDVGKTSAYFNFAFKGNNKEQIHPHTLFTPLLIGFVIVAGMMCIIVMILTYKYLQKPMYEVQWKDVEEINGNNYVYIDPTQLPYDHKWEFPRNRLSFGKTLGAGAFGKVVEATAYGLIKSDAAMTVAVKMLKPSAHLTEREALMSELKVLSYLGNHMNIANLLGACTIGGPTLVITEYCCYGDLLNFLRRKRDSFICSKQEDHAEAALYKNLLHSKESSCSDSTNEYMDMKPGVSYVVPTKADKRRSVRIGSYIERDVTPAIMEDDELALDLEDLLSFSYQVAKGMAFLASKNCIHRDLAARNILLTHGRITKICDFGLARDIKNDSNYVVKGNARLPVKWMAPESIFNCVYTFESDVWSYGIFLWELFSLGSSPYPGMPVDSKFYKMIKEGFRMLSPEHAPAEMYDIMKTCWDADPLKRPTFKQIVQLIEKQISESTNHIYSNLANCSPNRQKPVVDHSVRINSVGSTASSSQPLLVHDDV
procedure.summary: KINOMEscan competition binding
test.context: compound 10.0 µM
Kindly state kinase still bound, per cent of control for each of the entries shown.
Quick note: give the figure in %, leave out the unit.

Prompt: I would be grateful if you could share the reported kinase still bound, per cent of control for CCN1CCN(C(=O)Cc2ccc(Nc3ncc(F)c(Nc4ccc(C(=O)Nc5ccccc5Cl)cc4)n3)cc2)CC1 .
Completion: 84

Prompt: What value of kinase still bound, per cent of control has been recorded for this entry: Cc1ccc(C(=O)Nc2cccc(C(F)(F)F)c2)cc1Nc1cncc(C(N)=O)c1
Completion: 18

Prompt: Could you tell me which kinase still bound, per cent of control is on file for COc1cc(N2CCC(C(N)=O)CC2)ccc1Nc1nc(N)c(Cl)c(Nc2ccccc2S(=O)(=O)C(C)C)n1 ?
Completion: 100

Prompt: Need kinase still bound, per cent of control of Cc1cn(-c2cc(C(=O)Nc3ccc(C)c(NC(=O)c4ccno4)c3)cc(C(F)(F)F)c2)cn1 , thanks.
Completion: 5.4
